- target_system: Cytochrome P450 1A1 (Homo sapiens)
- experimental_protocol: Inhibition of recombinant human CYP1A1 using 7-ethyl-0-resorufin as substrate incubated for 30 mins in presence of NADPH by EROD assay
reported_endpoint: pIC50
Reminder that pIC50 is minus the log10 of a molar concentration.

Illustrative cases are given below, each with its answer.
smiles_record	pIC50
Clc1cc(Cl)cc(Nc2nc(-c3nc(-c4ccncc4)cs3)cs2)c1	5.99
Fc1cccc(Nc2nc(-c3nc(-c4ccccn4)cs3)cs2)c1	6.50
Clc1cc(Cl)cc(Nc2nc(-c3nc(-c4ccccc4Cl)cs3)cs2)c1	5.95
COc1cc(Nc2nc(-c3nc(-c4ccccc4)c(-c4ccccc4)s3)cs2)cc(OC)c1	6.28
COc1cc(Nc2nc(-c3nccs3)cs2)cc(OC)c1	7.36
Clc1ccc(Nc2nc(-c3nccs3)cs2)cc1	6.23
Fc1cccc(Nc2nc(-c3nc(-c4ccccc4)cs3)cs2)c1	5.89
Clc1cc(Cl)cc(Nc2nc(-c3nc(-c4ccccc4)cs3)cs2)c1	6.05
Cc1sc(-c2csc(Nc3cc(Cl)cc(Cl)c3)n2)nc1-c1ccccc1	6.50
COc1cccc(-c2csc(-c3csc(Nc4ccc(N5CCOCC5)cc4)n3)n2)c1	6.50

[Q] May I ask what pIC50 has been recorded for Fc1ccc(-c2csc(-c3csc(Nc4ccc(N5CCOCC5)cc4)n3)n2)cc1 ?
[A] 6.77

[Q] May I ask what pIC50 has been recorded for CCc1sc(-c2csc(Nc3cccc(F)c3)n2)nc1-c1ccccc1 ?
[A] 6.61

====

- target_system: Cytochrome P450 1A1 (Homo sapiens, UniProt P04798)
- Sequence (P04798 whole entry): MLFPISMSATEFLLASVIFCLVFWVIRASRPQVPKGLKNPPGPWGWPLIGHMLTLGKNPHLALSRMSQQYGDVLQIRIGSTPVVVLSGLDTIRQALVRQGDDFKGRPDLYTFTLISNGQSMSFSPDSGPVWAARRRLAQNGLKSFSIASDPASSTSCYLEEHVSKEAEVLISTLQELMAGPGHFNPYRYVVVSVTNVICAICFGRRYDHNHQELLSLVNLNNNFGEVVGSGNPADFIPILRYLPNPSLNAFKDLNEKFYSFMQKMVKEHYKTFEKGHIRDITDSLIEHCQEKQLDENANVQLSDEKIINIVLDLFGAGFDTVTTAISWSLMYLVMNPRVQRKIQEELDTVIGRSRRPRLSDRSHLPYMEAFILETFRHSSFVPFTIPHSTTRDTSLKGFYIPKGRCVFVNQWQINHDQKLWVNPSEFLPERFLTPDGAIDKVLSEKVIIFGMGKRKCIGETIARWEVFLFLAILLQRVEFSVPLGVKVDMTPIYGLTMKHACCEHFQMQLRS
- experimental_protocol: Inhibition of recombinant human CYP1A1 using 7-ethyl-0-resorufin as substrate incubated for 30 mins in presence of NADPH by EROD assay
reported_endpoint: IC50 (nM)
Only the number, expressed in nM, is required.

Illustrative cases are given below, each with its answer.
smiles_record	target_system	IC50 [nM]
COc1cc(Nc2nc(-c3nc(-c4ccccc4)cs3)cs2)cc(OC)c1	Cytochrome P450 1A1 (Homo sapiens, UniProt P04798)	222
c1cc(-c2csc(-c3csc(Nc4ccc(N5CCOCC5)cc4)n3)n2)ccn1	Cytochrome P450 1A1 (Homo sapiens, UniProt P04798)	4460

[Q] May I ask what IC50 has been recorded for Clc1cc(Cl)cc(Nc2nc(-c3nc(-c4cccnc4)cs3)cs2)c1 ?
[A] 387

====

- target_system: CYP1B1 (Homo sapiens, UniProt Q16678)
- Sequence (Q16678 whole entry): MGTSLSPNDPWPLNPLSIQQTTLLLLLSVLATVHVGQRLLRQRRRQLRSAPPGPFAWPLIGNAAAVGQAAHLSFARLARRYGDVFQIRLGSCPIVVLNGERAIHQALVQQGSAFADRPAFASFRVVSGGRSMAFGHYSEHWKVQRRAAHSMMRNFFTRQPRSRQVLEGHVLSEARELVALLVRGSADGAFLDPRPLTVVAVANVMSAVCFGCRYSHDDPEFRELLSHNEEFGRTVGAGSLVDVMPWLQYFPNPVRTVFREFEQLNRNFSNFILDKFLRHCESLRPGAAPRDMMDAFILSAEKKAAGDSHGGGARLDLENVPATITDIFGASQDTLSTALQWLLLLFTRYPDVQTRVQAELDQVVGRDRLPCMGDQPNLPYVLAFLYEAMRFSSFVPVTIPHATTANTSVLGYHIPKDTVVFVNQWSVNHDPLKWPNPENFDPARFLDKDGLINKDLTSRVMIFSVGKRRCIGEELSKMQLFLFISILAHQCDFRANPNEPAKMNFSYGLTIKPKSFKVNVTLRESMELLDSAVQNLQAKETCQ
- experimental_protocol: Inhibition of recombinant human CYP1B1 assessed as inhibition ratio at 100 nM using 7-ethyl-0-resorufin as substrate incubated for 30 mins in presence of NADPH by EROD assay relative to control
- condition_set: recombinant human CYP1B1, probe 7-ethyl-0-resorufin
inhibition at 0.5 h, 0.1 µM: recorded values
Only the number, expressed in %, is required.

Illustrative cases are given below, each with its answer.
smiles_record	unit_of_measure	inhibition at 0.5 h, 0.1 µM
c1csc(-c2csc(Nc3ccc(N4CCOCC4)cc3)n2)n1	%	87.7
Clc1cccc(Nc2nc(-c3nccs3)cs2)c1	%	90
c1csc(-c2csc(Nc3ccc(Cn4cncn4)cc3)n2)n1	%	92

[Q] May I ask what inhibition at 0.5 h, 0.1 µM has been recorded for Clc1ccc(Nc2nc(-c3nccs3)cs2)cc1 ?
[A] 90

[Q] May I ask what inhibition at 0.5 h, 0.1 µM has been recorded for Fc1ccccc1Nc1nc(-c2nccs2)cs1 ?
[A] 89.6

[Q] May I ask what inhibition at 0.5 h, 0.1 µM has been recorded for Fc1ccc(Nc2nc(-c3nccs3)cs2)cc1 ?
[A] 92

FYI, the data here is from ChEMBL document CHEMBL5236635.
